Values from the supplement of paper PMC7411054

Tested on: HepG2-TP53BP1-CLTA
experimental-protocol: phenotypically active (imaging signature differs from DMSO and reproducible) at any of 0.3-9 uM (binary (1 = active, 0 = inactive)); higher = active
condition-parameters: treatment time: 24 h
Where a name gives a salt, the structure may show the parent alone.
Outcome codes: active, inactive

{"compound": "Cc1ccc(NC(=O)c2cccc(C(C)(C)C#N)c2)cc1Nc1ccc2ncn(C)c(=O)c2c1", "group": "active"}
{"compound": "CN(C)CCCSc1ccccc1NC(=O)/C=C/c1ccccc1 [Cinanserin hydrochloride]", "group": "inactive"}
{"compound": "NC(=O)C(c1ccccc1)(c1ccc(F)cc1)c1ccc(F)cc1", "group": "inactive"}
{"compound": "N#Cc1ccc2ncnc(NCCc3ccccc3)c2c1", "group": "inactive"}
{"compound": "COc1cc2c(cc1O)CC[C@@H]1[C@@H]2CC[C@]2(C)[C@@H](O)CC[C@@H]12", "group": "active"}
{"compound": "O=C1c2ccccc2-c2nc3nonc3nc21", "group": "active"}
{"compound": "CNCC(O)c1ccc(OC(=O)C(C)(C)C)c(OC(=O)C(C)(C)C)c1 (centres undefined)", "group": "inactive"}
{"compound": "CCC(NC(C)C)C(O)c1ccc(O)c(O)c1 (centres undefined)", "group": "inactive"}
{"compound": "O=C1/C(=C\\c2ccncc2)CCC/C1=C\\c1ccncc1", "group": "active"}
{"compound": "COC(=O)[C@H]1[C@H]2C[C@H]3c4[nH]c5ccccc5c4CCN3C[C@@H]2CC[C@@H]1O [Corynanthine hydrochloride]", "group": "inactive"}
{"compound": "CNC(=O)c1ccc(C)c(-n2c(C)cc(OCc3ccc(F)cc3F)c(Br)c2=O)c1", "group": "inactive"}
{"compound": "Cc1cccc(Nc2ccccc2C(=O)O)c1C", "group": "inactive"}
{"compound": "CC(C)[N+](C)(CCOC(=O)C1c2ccccc2Oc2ccccc21)C(C)C", "group": "inactive"}
{"compound": "CCc1cc2c(=O)c(-c3nc4ccccc4s3)coc2c(CN2CCCCC2)c1O", "group": "inactive"}
{"compound": "CN(C)CCC[C@@]1(c2ccc(F)cc2)OCc2cc(C#N)ccc21", "group": "inactive"}
{"compound": "CC(C)(C)c1cnc(CSc2cnc(NC(=O)C3CCNCC3)s2)o1", "group": "active"}
{"compound": "COc1cc(N2CCC(N3CCN(C)CC3)CC2)ccc1Nc1ncnc(Nc2ccccc2S(=O)(=O)C(C)C)n1", "group": "active"}
{"compound": "CN(C)C(=N)NC(=N)N [Metformin hydrochloride]", "group": "inactive"}
{"compound": "CC(=O)[C@@]1(O)CC[C@H]2[C@@H]3C[C@H](C)C4=CC(=O)C=C[C@]4(C)[C@@]3(F)[C@@H](O)C[C@@]21C", "group": "inactive"}

* * *

Tested on: A549-TP53BP1-CLTA
experimental-protocol: phenotypically active (imaging signature differs from DMSO and reproducible) at any of 0.3-9 uM (binary (1 = active, 0 = inactive)); higher = active
condition-parameters: treatment time: 24 h
Structures can show the parent of a compound that is named as a salt.
metric-name: phenotypically active

{"compound": "NC(=O)c1cccc(-c2cccc(OC(=O)NC3CCCCC3)c2)c1", "recorded-number": 0}
{"compound": "CN1CCN(C(=O)CN[C@H]2C[C@@H]2c2ccc(OCc3ccccc3)cc2)CC1 [RN 1 dihydrochloride]", "recorded-number": 1}
{"compound": "Cc1c(OCC(F)(F)F)ccnc1CS(=O)c1nc2ccccc2[nH]1 (stereo not drawn)", "recorded-number": 0}
{"compound": "C/C=C1\\NC(=O)[C@H]2CSSCCC=C[C@H](CC(=O)N[C@H](C(C)C)C(=O)N2)OC(=O)[C@H](C(C)C)NC1=O", "recorded-number": 1}
{"compound": "O=C1CCc2ccc(OCCCCN3CCN(c4cccc(Cl)c4Cl)CC3)cc2N1", "recorded-number": 0}
{"compound": "CN(C)CCCNc1c2c(=O)n(C)c(=O)nc-2n(C)c2ccccc12", "recorded-number": 1}
{"compound": "CCC1(O)CC2CN(CCc3c([nH]c4ccccc34)C(C(=O)OC)(c3cc4c(cc3OC)N(C)C3C(O)(C(=O)OC)C(OC(C)=O)C5(CC)C=CCN6CCC43C65)C2)C1 (stereo not drawn) [Vinblastine sulfate]", "recorded-number": 1}
{"compound": "COc1ccc(-c2noc(CSc3nnc(C)n3-c3ccc(OC)cc3)n2)cc1", "recorded-number": 0}

* * *

We begin with a simple list: items and their reported lowest phenotypically active concentration.
Test system: WPMY1-GM130-SQSTM1
experimental-protocol: lowest phenotypically active concentration; higher = less potent
condition-parameters: treatment time: 24 h
Counter-ions that a name gives are not always drawn.
metric-name: lowest phenotypically active concentration (µM)

{"compound": "Nc1ncn([C@@H]2O[C@H](CO)[C@@H](O)[C@H]2O)c(=O)n1", "units": "µM", "result-comparator": "=", "recorded-number": 1}
{"compound": "CN(C)c1ccc(C(=O)NCCCCCCC(=O)NO)cc1", "units": "µM", "result-comparator": "≤", "recorded-number": 0.3}
{"compound": "CCOC(=O)CCNc1cc(N2CCc3ccccc3CC2)nc(-c2ccccn2)n1", "units": "µM", "result-comparator": "=", "recorded-number": 3}
{"compound": "CC[C@@H]1C(=O)N(C)c2cnc(Nc3ccc(C(=O)NC4CCN(C)CC4)cc3OC)nc2N1C1CCCC1", "units": "µM", "result-comparator": "≤", "recorded-number": 0.3}
{"compound": "S=c1[nH]cnc2nc[nH]c12", "units": "µM", "result-comparator": "=", "recorded-number": 9}
{"compound": "Nc1ccn([C@@H]2O[C@H](CO)[C@@H](O)[C@@H]2O)c(=O)n1", "units": "µM", "result-comparator": "=", "recorded-number": 1}
{"compound": "COc1cc2c(NC3CCN(C(C)C)CC3)nc(C3CCCCC3)nc2cc1OCCCN1CCCC1", "units": "µM", "result-comparator": "≤", "recorded-number": 0.3}
{"compound": "Oc1cccc(-c2nc(N3CCOCC3)c3oc4ncccc4c3n2)c1 [PI 103 hydrochloride]", "units": "µM", "result-comparator": "≤", "recorded-number": 0.3}
{"compound": "CN(C)CC(=O)Nc1ccc2[nH]c(=O)c3ccccc3c2c1 [PJ 34 hydrochloride]", "units": "µM", "result-comparator": "=", "recorded-number": 9}
{"compound": "C[C@@H](Oc1cc(-n2cnc3ccc(CN4CCN(C)CC4)cc32)sc1C(N)=O)c1ccccc1C(F)(F)F", "units": "µM", "result-comparator": "≤", "recorded-number": 0.3}
{"compound": "COc1cc(C(=O)N2CCC(N3CCN(C)CC3)CC2)ccc1Nc1ncc2c(n1)N(C)c1ccccc1C(=O)N2C", "units": "µM", "result-comparator": "=", "recorded-number": 1}
{"compound": "CCN1CCN(c2ccc(Nc3cc(N(C)C(=O)Nc4c(Cl)c(OC)cc(OC)c4Cl)ncn3)cc2)CC1", "units": "µM", "result-comparator": "=", "recorded-number": 9}
{"compound": "C=C1CC[C@@H]2[C@](C)(CO)[C@H](O)CC[C@@]2(C)[C@@H]1C/C=C1/C(=O)OC[C@H]1O [Andrographolide]", "units": "µM", "result-comparator": "=", "recorded-number": 9}
{"compound": "CC(C)n1c(/C=C/[C@@H](O)C[C@@H](O)CC(=O)O)c(-c2ccc(F)cc2)c2ccccc21.CC(C)n1c(/C=C/[C@H](O)C[C@H](O)CC(=O)O)c(-c2ccc(F)cc2)c2ccccc21 [Fluvastatin sodium]", "units": "µM", "result-comparator": "≤", "recorded-number": 0.3}
{"compound": "COc1ccc2cc1Oc1ccc(cc1)C[C@H]1c3cc(c(OC)cc3CCN1C)Oc1c(OC)c(OC)cc3c1[C@H](C2)N(C)CC3", "units": "µM", "result-comparator": "≤", "recorded-number": 0.3}
{"compound": "CCCCCCCCCCCCCCCC[n+]1ccn(Cc2ccccc2)c1C", "units": "µM", "result-comparator": "=", "recorded-number": 3}
{"compound": "CC(C)C(=O)Nc1ccc([N+](=O)[O-])c(C(F)(F)F)c1 [flutamide]", "units": "µM", "result-comparator": "=", "recorded-number": 9}
{"compound": "CCOC(=O)Nc1cc(-c2ccc(C)c(NS(C)(=O)=O)c2)nn2c(C)nnc12", "units": "µM", "result-comparator": "=", "recorded-number": 1}
{"compound": "CC(=O)NC1=NN(C(C)=O)C(C)(c2ccccc2)S1 (stereo not given)", "units": "µM", "result-comparator": "=", "recorded-number": 3}
{"compound": "Cc1c2oc3c(C)ccc(C(=O)NC4C(=O)NC(C(C)C)C(=O)N5CCCC5C(=O)N(C)CC(=O)N(C)C(C(C)C)C(=O)OC4C)c3nc-2c(C(=O)NC2C(=O)NC(C(C)C)C(=O)N3CCCC3C(=O)N(C)CC(=O)N(C)C(C(C)C)C(=O)OC2C)c(N)c1=O (stereo not given)", "units": "µM", "result-comparator": "≤", "recorded-number": 0.3}
{"compound": "CC1(CN2CCC(n3c(=O)[nH]c4ccccc43)CC2)OCc2ccccc2-n2cccc21 (stereo not given)", "units": "µM", "result-comparator": "=", "recorded-number": 3}
{"compound": "Cc1noc(C)c1Cn1cc(C#N)c2cc(Oc3ccc(NC(=O)[C@@H]4CCCN4)cc3)ccc21", "units": "µM", "result-comparator": "=", "recorded-number": 9}
{"compound": "CC(C)COCC(CN(Cc1ccccc1)c1ccccc1)N1CCCC1 (stereo not given)", "units": "µM", "result-comparator": "=", "recorded-number": 9}
{"compound": "Cc1ccc2nc(NCCN)c3ncc(C)n3c2c1", "units": "µM", "result-comparator": "=", "recorded-number": 3}
{"compound": "CN(C)CC(O)Cn1c2ccc(Br)cc2c2cc(Br)ccc21 (stereo not given)", "units": "µM", "result-comparator": "=", "recorded-number": 3}
{"compound": "CC(=O)NCC(=O)N1[C@@H]2CC[C@H]1c1ccc(Nc3ncc(C(F)(F)F)c(NC4CCC4)n3)cc12", "units": "µM", "result-comparator": "≤", "recorded-number": 0.3}
{"compound": "COC(=O)Nc1nc2ccc(C(=O)c3cccs3)cc2[nH]1", "units": "µM", "result-comparator": "≤", "recorded-number": 0.3}
{"compound": "O=C(CCCCCCC(=O)Nc1ccc([C@H]2O[C@@H](CSc3nc(-c4ccccc4)c(-c4ccccc4)o3)C[C@@H](c3ccc(CO)cc3)O2)cc1)NO", "units": "µM", "result-comparator": "=", "recorded-number": 3}
{"compound": "CNC(=O)c1ccccc1Sc1ccc2c(/C=C/c3ccccn3)n[nH]c2c1", "units": "µM", "result-comparator": "=", "recorded-number": 3}
{"compound": "CCc1cc(-c2n[nH]c(C)c2-c2ccc3c(c2)OCCO3)c(O)cc1O", "units": "µM", "result-comparator": "=", "recorded-number": 3}
{"compound": "CN(C)CCOC(c1ccccc1)c1ccccc1 [diphenhydramine]", "units": "µM", "result-comparator": "=", "recorded-number": 9}
{"compound": "Nc1cccc(-c2cc3c(Oc4cccc(O)c4)ncnc3[nH]2)c1", "units": "µM", "result-comparator": "=", "recorded-number": 9}
{"compound": "CC1(C)CC(=O)c2c(S(C)(=O)=O)sc(Cl)c2C1", "units": "µM", "result-comparator": "=", "recorded-number": 3}
{"compound": "Cn1cc(-c2ccc3nnc(Sc4ccc5ncccc5c4)n3n2)cn1", "units": "µM", "result-comparator": "=", "recorded-number": 1}
{"compound": "CCCCNNC(=O)c1ccc(Br)cc1", "units": "µM", "result-comparator": "=", "recorded-number": 3}
